Can you tell me Mean % WT Binding for the items I'm about to list?
study.target: human CD33 S314A (human, UniProt P20138 18-364)
Sequence (P20138 18-364 S314A limits assumed): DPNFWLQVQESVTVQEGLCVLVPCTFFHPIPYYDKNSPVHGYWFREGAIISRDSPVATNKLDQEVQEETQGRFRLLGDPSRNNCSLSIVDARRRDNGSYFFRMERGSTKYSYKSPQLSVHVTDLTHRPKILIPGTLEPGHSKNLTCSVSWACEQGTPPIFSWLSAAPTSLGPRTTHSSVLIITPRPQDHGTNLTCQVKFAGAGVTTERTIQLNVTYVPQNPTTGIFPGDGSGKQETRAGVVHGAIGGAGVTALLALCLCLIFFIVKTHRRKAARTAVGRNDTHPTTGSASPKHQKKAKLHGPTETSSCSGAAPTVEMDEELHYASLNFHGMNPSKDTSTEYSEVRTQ
assay.text: alanine scan, flow cytometry, HEK293-T;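 note: antibody binding to each alanine-substituted CD33 mutant expressed transiently in HEK293-T, read as fluorescence minus background, mean of duplicates, relative to wild-type CD33 set as 100%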
Write down the numeric answer in % WT binding and omit the unit.

Data request: Using known records, supply Mean % WT Binding for Refmab #1 (antibody, V domains shown, The alanine scan used IgG or Fab; also called hP67.6) VH: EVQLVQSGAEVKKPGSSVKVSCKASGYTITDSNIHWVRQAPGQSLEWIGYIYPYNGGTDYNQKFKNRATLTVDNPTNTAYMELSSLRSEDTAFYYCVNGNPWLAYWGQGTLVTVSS VL: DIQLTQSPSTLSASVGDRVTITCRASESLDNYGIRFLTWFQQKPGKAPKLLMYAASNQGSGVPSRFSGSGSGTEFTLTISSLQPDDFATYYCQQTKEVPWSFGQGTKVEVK
Data returned: 96.2

Data request: Quick one: give measured Mean % WT Binding for Refmab #2 (antibody, V domains shown, The alanine scan used IgG or Fab) VH: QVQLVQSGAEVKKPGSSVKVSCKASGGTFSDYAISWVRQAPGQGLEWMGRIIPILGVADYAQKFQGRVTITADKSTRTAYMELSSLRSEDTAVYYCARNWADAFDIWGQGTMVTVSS VL: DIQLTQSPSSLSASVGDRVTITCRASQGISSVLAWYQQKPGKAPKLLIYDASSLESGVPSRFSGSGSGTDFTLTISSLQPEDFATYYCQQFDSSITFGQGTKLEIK
Data returned: 95.5

Data request: Give the measured Mean % WT Binding for Refmab #3 (antibody, V domains shown, The alanine scan used IgG or Fab) VH: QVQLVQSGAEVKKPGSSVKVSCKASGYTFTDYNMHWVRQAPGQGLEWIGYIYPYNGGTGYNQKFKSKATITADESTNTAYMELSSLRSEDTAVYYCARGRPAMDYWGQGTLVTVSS VL: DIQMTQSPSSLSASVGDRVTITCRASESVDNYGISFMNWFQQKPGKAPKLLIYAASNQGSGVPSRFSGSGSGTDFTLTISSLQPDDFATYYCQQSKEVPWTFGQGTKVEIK
Data returned: 139

Data request: Given the binder Refmab #4 (antibody, V domains shown, The alanine scan used IgG or Fab) VH: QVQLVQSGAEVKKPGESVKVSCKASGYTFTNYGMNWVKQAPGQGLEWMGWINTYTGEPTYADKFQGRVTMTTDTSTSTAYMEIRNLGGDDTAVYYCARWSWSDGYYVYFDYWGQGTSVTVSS VL: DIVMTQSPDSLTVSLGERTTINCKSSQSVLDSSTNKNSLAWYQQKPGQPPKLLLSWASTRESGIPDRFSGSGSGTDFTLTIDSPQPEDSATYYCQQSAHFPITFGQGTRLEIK , write its reported Mean % WT Binding.
Data returned: 95.5
